# Dox/P. a: fold change (intrinsic MIC of test compound / combination MIC) values compiled below
- System: P. aeruginosa ATCC 27853
- protocol_text: Doxycycline enhancement against P. aeruginosa
- Type: cell-based, Pseudomonas aeruginosa
- setup_conditions: doxycycline fixed at 4.5 µM
API: value field is a number in fold; no unit string.

compound	value_measured
O=C(C=Cc1ccccc1)NCCCNCCCCCCCCCCNCCCNC(=O)C=Cc1ccccc1.O=C(O)C(F)(F)F.O=C(O)C(F)(F)F [Compound 13e]	1
COc1c(Br)cc(/C=C/C(=O)NCCCNCCCCNCCCNC(=O)/C=C/c2cc(Br)c(OC)c(Br)c2)cc1Br.O=C(O)C(F)(F)F.O=C(O)C(F)(F)F [Compound 16a]	32
COc1c(Br)cc(/C=C/C(=O)NCCCNCCCCCCCCCCNCCCNC(=O)/C=C/c2cc(Br)c(OC)c(Br)c2)cc1Br.O=C(O)C(F)(F)F.O=C(O)C(F)(F)F [Compound 16e]	2
COc1ccc(/C=C/C(=O)NCCCNCCCCCCCCCCNCCCNC(=O)/C=C/c2ccc(OC)cc2)cc1.O=C(O)C(F)(F)F.O=C(O)C(F)(F)F [Compound 14e]	4
COc1c(Br)cc(/C=C/C(=O)NCCCNCCCCCCCNCCCNC(=O)/C=C/c2cc(Br)c(OC)c(Br)c2)cc1Br.O=C(O)C(F)(F)F.O=C(O)C(F)(F)F [Compound 16c]	16

Challenge: Fill in Dox/P. a: fold change (intrinsic MIC of test compound / combination MIC) for record COc1ccc(/C=C/C(=O)NCCCNCCCCCCCCNCCCNC(=O)/C=C/c2ccc(OC)cc2)cc1.O=C(O)C(F)(F)F.O=C(O)C(F)(F)F [Compound 14d]
Response given: 16

Challenge: Dear colleague, please send me the reported Dox/P. a: fold change (intrinsic MIC of test compound / combination MIC) for O=C(C=Cc1ccccc1)NCCCNCCCCCCCCCCCCNCCCNC(=O)C=Cc1ccccc1.O=C(O)C(F)(F)F.O=C(O)C(F)(F)F [Compound 13f] when you can.
Response given: 8

Challenge: Supply reported Dox/P. a: fold change (intrinsic MIC of test compound / combination MIC) belonging to this compound: COc1ccc(/C=C/C(=O)NCCCNCCCCCCCCCCCCNCCCNC(=O)/C=C/c2ccc(OC)cc2)cc1.O=C(O)C(F)(F)F.O=C(O)C(F)(F)F [Compound 14f]
Response given: 32

Challenge: Quick one: give measured Dox/P. a: fold change (intrinsic MIC of test compound / combination MIC) for O=C(C=Cc1ccccc1)NCCCNCCCCNCCCNC(=O)C=Cc1ccccc1.O=C(O)C(F)(F)F.O=C(O)C(F)(F)F [Compound 13a]
Response given: 5

Challenge: For the compound COc1ccc(/C=C/C(=O)NCCCNCCCCCCCCCCNCCCNC(=O)/C=C/c2ccc(OC)c(Br)c2)cc1Br.O=C(O)C(F)(F)F.O=C(O)C(F)(F)F [Compound 15e] , give its measured Dox/P. a: fold change (intrinsic MIC of test compound / combination MIC) value.
Response given: 1

====

- Test system: P. aeruginosa ATCC 27853
- protocol_text: Doxycycline enhancement against P. aeruginosa
- Assay type: cell-based, Pseudomonas aeruginosa
- setup_conditions: doxycycline fixed at 4.5 µM
quantity: Dox/P. a: concentration required to restore doxycycline activity (µM)
Give the value, in units of µM, as a plain number.

Sample answers from the record:
> print(dat)
                                   molecule  value.measured
1  COc1ccc(/C=C/C(=O)NCCCNCCCCCCNCCCNC(=O)/C=C/c2ccc(OC)c(Br)c2)cc1Br.O=C(O)C(F)(F)F.O=C(O)C(F)(F)F [Compound 15b]            53.4
2  COc1ccc(/C=C/C(=O)NCCCNCCCCCCCNCCCNC(=O)/C=C/c2ccc(OC)cc2)cc1.O=C(O)C(F)(F)F.O=C(O)C(F)(F)F [Compound 14c]            31.5
3  O=C(C=Cc1ccccc1)NCCCNCCCCCCCCCCCCNCCCNC(=O)C=Cc1ccccc1.O=C(O)C(F)(F)F.O=C(O)C(F)(F)F [Compound 13f]            6.25

Proceed to the following item.
Challenge: Give the reported Dox/P. a: concentration required to restore doxycycline activity for this molecule. COc1ccc(/C=C/C(=O)NCCCNCCCCCCCCNCCCNC(=O)/C=C/c2ccc(OC)cc2)cc1.O=C(O)C(F)(F)F.O=C(O)C(F)(F)F [Compound 14d]
Response given: 15.5

====

- System: human red blood cells
- protocol_text: Hemolytic assay
- Assay type: cell-based
- setup_conditions: mean (n = 2)
Listed here are molecules together with their documented Hemolysis (HC10), concentration of compound at 10% hemolytic activity.

Study these solved cases before continuing.
> print(dat)
                                   molecule  value.measured
1  O=C(C=Cc1ccccc1)NCCCNCCCCCCNCCCNC(=O)C=Cc1ccccc1.O=C(O)C(F)(F)F.O=C(O)C(F)(F)F [Compound 13b]        >44.5 µM
2  COc1c(Br)cc(/C=C/C(=O)NCCCNCCCCCCNCCCNC(=O)/C=C/c2cc(Br)c(OC)c(Br)c2)cc1Br.O=C(O)C(F)(F)F.O=C(O)C(F)(F)F [Compound 16b]         0.91 µM

Switching to the query record.
Challenge: Tell me its Hemolysis (HC10), concentration of compound at 10% hemolytic activity on human red blood cells: O=C(C=Cc1ccccc1)NCCCNCCCCCCCCCCCCNCCCNC(=O)C=Cc1ccccc1.O=C(O)C(F)(F)F.O=C(O)C(F)(F)F [Compound 13f]
Response given: >39.9 µM

====

Below, each of the compounds is paired with its reported Dox/P. a: concentration required to restore doxycycline activity value.
- Test system: P. aeruginosa ATCC 27853
- protocol_text: Doxycycline enhancement against P. aeruginosa
- Type: cell-based, Pseudomonas aeruginosa
- setup_conditions: doxycycline fixed at 4.5 µM
Just the number in µM, nothing appended.

Worked examples, 3 compounds total:
compound	units_text	value_measured
COc1ccc(/C=C/C(=O)NCCCNCCCCCCCCCCCCNCCCNC(=O)/C=C/c2ccc(OC)cc2)cc1.O=C(O)C(F)(F)F.O=C(O)C(F)(F)F [Compound 14f]	µM	7.24
COc1ccc(/C=C/C(=O)NCCCNCCCCCCCCCCNCCCNC(=O)/C=C/c2ccc(OC)c(Br)c2)cc1Br.O=C(O)C(F)(F)F.O=C(O)C(F)(F)F [Compound 15e]	µM	50.4
COc1c(Br)cc(/C=C/C(=O)NCCCNCCCCCCCCCCCCNCCCNC(=O)/C=C/c2cc(Br)c(OC)c(Br)c2)cc1Br.O=C(O)C(F)(F)F.O=C(O)C(F)(F)F [Compound 16f]	µM	42.4

Challenge: Give Dox/P. a: concentration required to restore doxycycline activity for COc1ccc(/C=C/C(=O)NCCCNCCCCNCCCNC(=O)/C=C/c2ccc(OC)cc2)cc1.O=C(O)C(F)(F)F.O=C(O)C(F)(F)F [Compound 14a]
Response given: 16.6

Challenge: Please indicate Dox/P. a: concentration required to restore doxycycline activity recorded for COc1ccc(/C=C/C(=O)NCCCNCCCCNCCCNC(=O)/C=C/c2ccc(OC)c(Br)c2)cc1Br.O=C(O)C(F)(F)F.O=C(O)C(F)(F)F [Compound 15a]
Response given: 27.5

Challenge: Please report the measured Dox/P. a: concentration required to restore doxycycline activity for COc1c(Br)cc(/C=C/C(=O)NCCCNCCCCCCCCNCCCNC(=O)/C=C/c2cc(Br)c(OC)c(Br)c2)cc1Br.O=C(O)C(F)(F)F.O=C(O)C(F)(F)F [Compound 16d]
Response given: 44.5

====

- Tested on: P. aeruginosa ATCC 27853
- protocol_text: Doxycycline enhancement against P. aeruginosa
- Format: cell-based, Pseudomonas aeruginosa
- setup_conditions: doxycycline fixed at 4.5 µM
Threshold check on Dox/P. a: concentration required to restore doxycycline activity: at or above 50 µM gives Yes, strictly below gives No.

See these solved cases before continuing.
> print(dat)
                                   compound  qualitative.label
1  O=C(C=Cc1ccccc1)NCCCNCCCCCCCNCCCNC(=O)C=Cc1ccccc1.O=C(O)C(F)(F)F.O=C(O)C(F)(F)F [Compound 13c]                Yes
2  O=C(C=Cc1ccccc1)NCCCNCCCCCCCCNCCCNC(=O)C=Cc1ccccc1.O=C(O)C(F)(F)F.O=C(O)C(F)(F)F [Compound 13d]                 No
3  COc1ccc(/C=C/C(=O)NCCCNCCCCCCCCCCNCCCNC(=O)/C=C/c2ccc(OC)cc2)cc1.O=C(O)C(F)(F)F.O=C(O)C(F)(F)F [Compound 14e]                Yes
4  COc1ccc(/C=C/C(=O)NCCCNCCCCCCCNCCCNC(=O)/C=C/c2ccc(OC)c(Br)c2)cc1Br.O=C(O)C(F)(F)F.O=C(O)C(F)(F)F [Compound 15c]                 No

Challenge: Answer whether Dox/P. a: concentration required to restore doxycycline activity of COc1ccc(/C=C/C(=O)NCCCNCCCCCCNCCCNC(=O)/C=C/c2ccc(OC)cc2)cc1.O=C(O)C(F)(F)F.O=C(O)C(F)(F)F [Compound 14b] is greater than or equal to 50 µM.
Response given: Yes
